Dear all, this message contains inhibition of human hepatocyte growth factor receptor expression results, target or system human hepatocyte growth factor receptor mRNA.
quantityMeasured: inhibition of human hepatocyte growth factor receptor expression

ISIS 209527: 2′-MOE gapmer, phosphorothioate backbone, sequence cgcttcacagcctgatgaat (antisense CGCTTCACAGCCTGATGAAT; all phosphorothioate, sugars by position and methylation of C not given here; 2'-MOE gapmer): at least 35%
ISIS 155101: 2′-MOE gapmer, phosphorothioate backbone, sequence ttcagccacaggaaaaaccc (antisense TTCAGCCACAGGAAAAACCC; all phosphorothioate, sugars by position and methylation of C not given here; 2'-MOE gapmer): at least 35%
ISIS 209537: 2′-MOE gapmer, phosphorothioate backbone, sequence agaggtttatctgccaaaac (antisense AGAGGTTTATCTGCCAAAAC; all phosphorothioate, sugars by position and methylation of C not given here; 2'-MOE gapmer): at least 35%
